System: SK-OV-3
Experiment: Growth inhibition of human SK-OV-3 cells at 10 uM incubated for 48 hrs by sulforhodamine B assay relative to control
Type: functional
Settings: read-out: GI

[
  {
    "sample.smiles": "O=C(CN1CCOCC1)Nc1ccc(-c2nc3ccccc3s2)cc1",
    "inhibition of growth at 10 µM, %": -21
  },
  {
    "sample.smiles": "O=C(CNc1nc2ccccc2s1)Nc1ccc(-c2nc3ccccc3s2)cc1",
    "inhibition of growth at 10 µM, %": -7.21
  },
  {
    "sample.smiles": "O=C(CNc1nc(-c2ccc(Cl)cc2)cs1)Nc1ccc(-c2nc3ccccc3s2)cc1",
    "inhibition of growth at 10 µM, %": 4.97
  },
  {
    "sample.smiles": "O=C(CN1C(=O)C(=O)c2ccccc21)Nc1ccc(-c2nc3ccccc3s2)cc1",
    "inhibition of growth at 10 µM, %": -10.3
  },
  {
    "sample.smiles": "O=C(CNc1ccccc1)Nc1ccc(-c2nc3ccccc3s2)cc1",
    "inhibition of growth at 10 µM, %": -24.1
  }
]
